target system: DLG2_2, Q15700
Sequence (Q15700 189-283): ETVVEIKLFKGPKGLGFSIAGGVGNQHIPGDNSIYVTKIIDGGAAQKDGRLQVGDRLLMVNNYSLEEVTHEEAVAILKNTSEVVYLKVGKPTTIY
experiment notes: holdup assay
Design: key: below the threshold = too weak to quantify, mostly under pKd 3.1 to 4
condition label: plain residues with an end cap or a label only (N-terminal biotin on a linker: ado-ado)
measurement name: pKd

>>> df
                                 binder               result
0             EFKQTSSFLV [JAM1, Q9Y624]  below the threshold
1  VKQYADVEGF [HNRNPK, P61978;P61978-2]  below the threshold
2            AKADAQESRL [PLCB2, Q00722]  below the threshold
3            RSPVATATSC [DUSP5, Q16690]  below the threshold
4           PLATCDETSI [SEMA4F, O95754]  below the threshold
5             DSEEELPTRL [GRK6, P43250]  below the threshold
6              SRPHTNETSL [MCC, P23508]  below the threshold
7           NSTHNLKDYV [CLDN20, P56880]  below the threshold
8            KAEEKPPSKV [SCN4B, Q8IWT1]  below the threshold
9            PKSNSSKEYV [CLDN7, O95471]  below the threshold

Could you tell me pKd for each of these binders? They are listed below.
1. PAALPESTHM [SLC9A3, P48764]
2. THREVKFTSL [CD46, P15529]

["below the threshold", 3.57]
